assay: Half life in male ICR mouse at 10 mg/kg, po and 2 mg/kg, iv measured upto 24 hrs; format: ADME, organism-based; details: in vivo
Given measured half-life, output condition met if it is greater than or equal to 2 h and condition not met if not.

>  <COMPOUND>
[2H]C([2H])([2H])NC1=NC(=O)[C@]2(CCc3ncccc32)c2cc(C(C)(F)F)ccc21

>  <LABEL>
condition met

$$$$
>  <COMPOUND>
NC1=NC(=O)C2(CCc3ncccc32)c2cc(C(F)(F)F)ccc21 (racemic)

>  <LABEL>
condition not met

$$$$
>  <COMPOUND>
CNC1=NC(=O)C2(CCc3ncccc32)c2nc(C(F)(F)F)ccc21 (stereo not given)

>  <LABEL>
condition met

$$$$
>  <COMPOUND>
[2H]C([2H])([2H])NC1=NC(=O)[C@]2(CCc3ncccc32)c2cc(C(F)(F)F)ccc21

>  <LABEL>
condition met

$$$$
